experiment_description: Volume of distribution in intravenously dosed HIV associated cryptococcal meningitis patient normalized to weight
Assay type: ADME, organism-based
condition: human, in vivo, iv; read-out: Vdss
parameter: Vd (L/kg)
Answer with a number only, understood to be in L/kg.

Summary for this compound, `Nc1nc(=O)[nH]cc1F` : Vd is 0.94

* * *

experiment_description: AUC in orally dosed HIV associated cryptococcal meningitis patient at 24 hrs
Assay type: ADME, organism-based
Design: time < 24 hr, route oral
condition: human, plasma, po
parameter: AUC at 24 h (µg·h/mL)
Quick reminder: number only, in µg·h/mL, skip the unit.

# AUC at 24 h (compound: `Nc1nc(=O)[nH]cc1F` ) is 576

* * *

experiment_description: Clearance in intravenously dosed HIV associated cryptococcal meningitis patient
Type: ADME, organism-based
condition: human, in vivo, iv
parameter: clearance (mL/min)
Write the value in mL/min as a bare number.

Entry `Nc1nc(=O)[nH]cc1F` ; clearance = 63.3

* * *

experiment_description: Oral clearance in HIV associated cryptococcal meningitis patient
Format: ADME, organism-based
condition: human, in vivo
parameter: CL/F (mL/min)
Just the number please, in mL/min, no unit attached.

# CL/F of `Nc1nc(=O)[nH]cc1F` = 112

* * *

experiment_description: AUC in intravenously dosed HIV associated cryptococcal meningitis patient at 24 hrs
Type: ADME, organism-based
Design: time < 24 hr, route intravenous
condition: human, plasma, iv
parameter: AUC at 24 h (µg·h/mL)
Report the value in µg·h/mL with no unit label.

Quick note, AUC at 24 h for `Nc1nc(=O)[nH]cc1F` landed at 1290
